- Tested on: Cryptococcus neoformans
- measurementDescription: Antifungal activity against Cryptococcus neoformans
- Format: functional
Catalogue of molecules with associated MIC
measuredProperty: MIC

{"molecule": "O=CN1C(c2ccccc2)CC(=O)C(Cc2ccccc2)C1c1ccccc1 (stereo unspecified)", "valueReported": "12.5 µg/mL"}
{"molecule": "O=CN1C(c2ccccc2)C/C(=N\\O)C(Cc2ccccc2)C1c1ccccc1 (stereo unspecified)", "valueReported": "6.25 µg/mL"}
{"molecule": "O/N=C1\\CC(c2ccco2)NC(c2ccco2)C1Cc1ccccc1 (stereo unspecified)", "valueReported": "6.25 µg/mL"}
{"molecule": "C[C@@H]1[C@H](O)[C@@H](C)/C=C/C=C/C=C/C=C/C=C/C=C/C=C/[C@H](O[C@@H]2O[C@H](C)[C@@H](O)[C@H](N)[C@@H]2O)C[C@@H]2O[C@](O)(C[C@@H](O)C[C@@H](O)[C@H](O)CC[C@@H](O)C[C@@H](O)CC(=O)O[C@H]1C)C[C@H](O)[C@H]2C(=O)O", "valueReported": "25 µg/mL"}
{"molecule": "O=C1CC(c2ccco2)NC(c2ccco2)C1Cc1ccccc1 (stereo unspecified)", "valueReported": "25 µg/mL"}
{"molecule": "O/N=C1\\CC(c2ccccc2)NC(c2ccccc2)C1Cc1ccccc1 (stereo unspecified)", "valueReported": "25 µg/mL"}

* * *

- System: Aspergillus niger
- measurementDescription: Antifungal activity against Aspergillus niger
- Format: functional

{"compound": "O/N=C1\\CC(c2ccccc2)NC(c2ccccc2)C1Cc1ccccc1 (configuration not stated)", "targetUnderTest": "Aspergillus niger", "MIC, µg/mL": 100}
{"compound": "O=C1CC(c2ccco2)NC(c2ccco2)C1Cc1ccccc1 (configuration not stated)", "targetUnderTest": "Aspergillus niger", "MIC, µg/mL": 50}
{"compound": "O=CN1C(c2ccccc2)CC(=O)C(Cc2ccccc2)C1c1ccccc1 (configuration not stated)", "targetUnderTest": "Aspergillus niger", "MIC, µg/mL": 50}
{"compound": "C[C@@H]1[C@H](O)[C@@H](C)/C=C/C=C/C=C/C=C/C=C/C=C/C=C/[C@H](O[C@@H]2O[C@H](C)[C@@H](O)[C@H](N)[C@@H]2O)C[C@@H]2O[C@](O)(C[C@@H](O)C[C@@H](O)[C@H](O)CC[C@@H](O)C[C@@H](O)CC(=O)O[C@H]1C)C[C@H](O)[C@H]2C(=O)O", "targetUnderTest": "Aspergillus niger", "MIC, µg/mL": 50}
{"compound": "O=CN1C(c2ccccc2)C/C(=N\\O)C(Cc2ccccc2)C1c1ccccc1 (configuration not stated)", "targetUnderTest": "Aspergillus niger", "MIC, µg/mL": 25}
{"compound": "O/N=C1\\CC(c2ccco2)NC(c2ccco2)C1Cc1ccccc1 (configuration not stated)", "targetUnderTest": "Aspergillus niger", "MIC, µg/mL": 6.25}
{"compound": "O=C1CC(c2ccccc2)NC(c2ccccc2)C1Cc1ccccc1 (configuration not stated)", "targetUnderTest": "Aspergillus niger", "MIC, µg/mL": 100}
